Entry source: patent US20250084188A1

# ASSAY TARGET: human chitinase-3-like protein 1 (hCHI3L1) (human, UniProt P36222 22-383)
# Sequence (P36222 22-383): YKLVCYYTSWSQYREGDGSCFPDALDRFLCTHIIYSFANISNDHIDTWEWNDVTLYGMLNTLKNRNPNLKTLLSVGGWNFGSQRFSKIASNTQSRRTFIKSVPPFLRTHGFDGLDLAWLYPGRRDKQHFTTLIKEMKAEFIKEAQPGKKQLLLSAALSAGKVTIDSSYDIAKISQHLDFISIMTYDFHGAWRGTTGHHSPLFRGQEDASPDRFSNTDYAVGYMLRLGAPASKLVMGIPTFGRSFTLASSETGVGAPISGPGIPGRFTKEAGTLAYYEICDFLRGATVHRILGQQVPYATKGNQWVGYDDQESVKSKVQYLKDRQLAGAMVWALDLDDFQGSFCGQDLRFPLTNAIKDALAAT
# TEST METHOD NOTES: ELISA
pEC50: −log10 of the molar value.
REPORTED METRIC: pEC50

[[record]]
binder = "A7 (IgG) (antibody, V domains shown) VH: EVQLVESGGGLVQPGGSLRLSCAASGFTFSDYAMSWVRQAPGKGLEWVSGISSSGGTIYYADSVKGRFTISRDNSKNTLYLQMNSLRAEDTAVYYCAKAIGSWADIWGQGTLVTVSS VL: DIQMTQSPSSLSASVGDRVTITCRASQDISNYLNWYQQKPGKAPKLLIYAASSLQSGVPSRFSGSGSGTDFTLTISSLQPEDFATYYCQQSYSFPYTFGQGTKVEIK"
reported_metric = "pEC50"
value_reported = 8.69

[[record]]
binder = "F2 (IgG) (antibody, V domains shown) VH: EVQLVESGGGLAQPGGSLRLSCAASGFTFSSYAMHWVRQAPGKGLEWVSSIKSSGGSKNYADSVKGRFTISRDNSKNTLYLQMNSLRAEDTAVYYCAKGYGASFDFWGQGTLVTVSS VL: DIQMTQSPSSLSASVGDRVTITCRASQDISSWLNWYQQKPGKAPKLLIYAASRLQSGVPSRFSGSGSGTDFTLTISSLQPEDFATYYCQQAYSFPWTFGQGTKVEIK"
reported_metric = "pEC50"
value_reported = 8.76

[[record]]
binder = "1E12 (IgG) (antibody, V domains shown) VH: EVQLVESGGGLVQPGGSLRLSCAASGFTFSSYAMHWVRQAPGKGLEWVSAISSSGGTKYYADSVKGRFTISRDNSKNTLYLQMNSLRAEDTAVYYCAKGLQGGAGAFDIWGQGTLVTVSS VL: DIQMTQSPSSLSASVGDRVTITCRASQSISNYLNWYQQKPGKAPKLLIYATSTLHSGVPSRFSGSGSGTDFTLTISSLQPEDFATYYCQQSYSFPWTFGQGTKVEIK"
reported_metric = "pEC50"
value_reported = 9.86

[[record]]
binder = "E7 (IgG) (antibody, V domains shown) VH: EVQLVESGGGLVQPGGSLRLSCAASGFTFSSYAMHWVRQAPGKGLEWVSAISSSGGSIYYADSVKGRFTISRDNSKNTLYLQMNSLRAEDTAVYYCAKQGLSFDIWGQGTLVTVSS VL: DIQMTQSPSSLSASVGDRVTITCRASQSISNWLNWYQQKPGKAPKLLIYATSRLQSGVPSRFSGSGSGTDFTLTISSLQPEDFATYYCQQSYSFPYTFGQGTKVEIK"
reported_metric = "pEC50"
value_reported = 9.46

[[record]]
binder = "H7 (IgG) (antibody, V domains shown) VH: EVQLVESGGGLVQPGGSLRLSCAASGFTFSSYGMHWVRQAPGKGLEWVSGISSSGGSKYYADSVKGRFTISRDNSKNTLYLQMNSLRAEDTAVYYCAKHGHQQMDFWGQGTLVTVSS VL: DIQMTQSPSSLSASVGDRVTITCRASQSISSWLNWYQQKPGKAPKLLIYAASRLQSGVPSRFSGSGSGTDFTLTISSLQPEDFATYYCQQTYSFPWTFGQGTKVEIK"
reported_metric = "pEC50"
value_reported = 8.86

[[record]]
binder = "H1 (IgG) (antibody, V domains shown) VH: EVQLVESGGGLVQPGGSLRLSCAASGFTFSSYAMSWVRQAPGKGLEWVSAIRSSGGTTYYADSVKGRFTISRDNSKNTLYLQMNSLRAEDTAVYYCAKSQSTVADYWGQGTLVTVSS VL: DIQMTQSPSSLSASVGDRVTITCRASQSISNWLNWYQQKPGKAPKLLIYATSRLQSGVPSRFSGSGSGTDFTLTISSLQPEDFATYYCQQSYSFPLTFGQGTKVEIK"
reported_metric = "pEC50"
value_reported = 9.30

[[record]]
binder = "C5 (IgG) (antibody, V domains shown) VH: EVQLVESGGGLVQPGGSLRLSCAASGFTFSSYAMSWVRQAPGKGLEWVSSISSSSGTTHYADSVKGRFTISRDNSKNTLYLQMNSLRAEDTAVYYCAKGGAFDYWGQGTLVTVSS VL: DIQMTQSPSSLSASVGDRVTITCRASQDISRWLNWYQQKPGKAPKLLIYAASTLQSGVPSRFSGSGSGTDFTLTISSLQPEDFATYYCQQSYSFPLTFGQGTKVEIK"
reported_metric = "pEC50"
value_reported = 10.03

